Assay: E. coli acrAB mutant growth effects, primary screen, E. coli filamentation inducers, strain DRC39, OD650, 48 h (AID 1179);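 note: screen aims at cell division blockers that make cells filament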
Conditions: E. coli DRC39 delta-acrAB growth, higher = more signal, called active from +8 up or from −8 down
# z-score listing for each entry below
Could you respond with only the numeric value?

Problem: # get_value(readout='z-score', item= COCCCNC(=O)[C@@]1(c2ccc([N+](=O)[O-])cc2)CC(=O)N(CC23CC4CC(CC(C4)C2)C3)[C@@H]1c1ccc(CO)cc1 )
Result: 0.351

Problem: Request the reported z-score associated with O=C(O)[C@@]1(Cc2ccccc2)N=C(c2ccc(OCCCO)cc2)O[C@H]1c1ccccc1
Result: 1.34

Problem: Look up z-score: O=C1O[C@H](c2ccccc2)[C@H](c2ccccc2)N2[C@H]1[C@@H](C(=O)O)[C@]1(C(=O)Nc3ccc(C#CC4=CCCCC4)cc31)[C@H]2c1ccc(OCCO)cc1
Result: -0.175

Problem: What does the record list as z-score for Cc1cc(C)c(C(O)C2C=CC3C(=O)N(C)C(=O)C3N2Nc2ccccc2)c(C)c1 (centres undefined) ?
Result: -0.456

* * *

Biological target: Follistatin-related protein 3 (Homo sapiens) (UniProt O95633)
Sequence (O95633 whole entry, looked up): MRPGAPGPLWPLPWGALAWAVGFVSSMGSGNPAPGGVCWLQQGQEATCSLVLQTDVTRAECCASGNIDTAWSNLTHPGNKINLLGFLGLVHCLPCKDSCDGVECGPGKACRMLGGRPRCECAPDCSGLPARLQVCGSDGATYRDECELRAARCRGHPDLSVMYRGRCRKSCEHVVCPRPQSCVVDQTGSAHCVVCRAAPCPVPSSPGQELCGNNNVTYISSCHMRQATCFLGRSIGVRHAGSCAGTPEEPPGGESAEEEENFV
Assay: FSTL3 binders on small-molecule microarrays, primary screen, biochemical, small-molecule microarray, 635 nm fluorescence (AID 1105);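 note: score merges emission near 667 nm and signal to noise per printed spot across three slides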
Conditions: FSTL3 binding, higher = more signal
measurement-type: composite z-score
Simply state the number, no unit and no words.

COC(=O)C(CC#Cc1ccc2c(c1)[C@]1(C(=O)N2)[C@H](C(=O)NC[C@H](O)c2ccccc2)[C@H]2C(=O)O[C@H](c3ccccc3)[C@H](c3ccccc3)N2[C@@H]1c1ccc(OCCO)cc1)C(=O)OC	1.46
C[N+](C)(C)CCCCCCNC(=O)[C@H]1C[C@H]2C(=O)N3CCC[C@H]3C(=O)N2[C@H]1c1ccc(O)cc1	0.196
C=CC[C@@H](OC(=O)Nc1ccc(OC)cc1)c1ccc(O)c2ccccc12	1.4

// next item, composite z-score requested
Problem: Any idea what composite z-score was measured for CN(C)C(=O)[C@]1(CCC(=O)OC(C)(C)C)N=C(c2ccc(OCCCO)cc2)O[C@@H]1c1ccccc1N=[N+]=[N-] ?
Result: 0.644

* * *

Assay: small-molecule microarray binders of probe aXIP, primary screen, biochemical, NeuroSMM set, 635/667 nm fluorescence (AID 1119);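 note: probe is the protein aXip251-270 applied at 1 µg/mL to compound-printed slides; binding of probe to printed compounds measured as 667 nm fluorescence plus signal to noise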
Details: higher = more signal, called active from +8 up or from −8 down
Catalogue of molecules with associated composite Z-score
// keep it numeric: no unit symbol after the value

CCOC(=O)C1=C[C@@H](C(C)C)N(S(=O)(=O)c2ccc(C)cc2)[C@H]1c1ccc(C(C)C)cc1	0.376
CC(C)NC(=O)[C@@]1(Cc2ccccc2I)c2ccccc2C(=O)N(Cc2ccccc2)[C@H]1c1ccc(CO)cc1	1.17
O=C1O[C@H](c2ccccc2)[C@H](c2ccccc2)N2[C@H]1[C@@H](C(=O)O)[C@]1(C(=O)Nc3ccc(C#CC4=CCCCC4)cc31)[C@H]2c1ccc(OCCO)cc1	0.0759
C=CCNC(=O)[C@@H]1[C@H]2C(=O)O[C@H](c3ccccc3)[C@H](c3ccccc3)N2[C@H](c2ccc(OCCO)cc2)[C@@]12C(=O)Nc1ccccc12	-0.551

Problem: Data request, read-out composite Z-score, for NC(=O)NCC#Cc1ccc2c(c1)[C@]1(C(=O)N2)[C@H](C(=O)NC[C@H](O)c2ccccc2)[C@H]2C(=O)O[C@H](c3ccccc3)[C@H](c3ccccc3)N2[C@@H]1c1ccc(O)cc1
Result: 0.58

Problem: I would be grateful if you could share the reported composite Z-score for COc1ccc([Si](C)(C)[C@@H]2[C@@H](CCn3cc([C@H](O)c4ccccc4)nn3)O[C@]3(C(=O)N(Cc4cccc(N5CCOC5=O)c4)c4ccccc43)[C@H]2C)cc1 .
Result: 0.25

Problem: I'd like to know its composite Z-score. The molecule in question is O=C1O[C@@H](c2ccccc2)[C@@H](c2ccccc2)N2[C@@H](c3ccc(OCCO)cc3)[C@]3(C(=O)Nc4ccc(C#CC5=CCCCC5)cc43)[C@@H](C(=O)O)[C@H]12
Result: 0.556

Problem: Report composite Z-score for CC(C)(C)N1CC=CC23O[C@@H]4C=CCOC(=O)[C@@H]4[C@H]2C(=O)N(CCCCCO)[C@@H]3C1=O (stereo partly drawn) please.
Result: 1.1

Problem: Bench note: what composite Z-score did COc1ccc(C#Cc2ccc3c(c2)[C@]2(C(=O)N3)[C@H](c3ccc(O)cc3)N3[C@H](c4ccccc4)[C@H](c4ccccc4)OC(=O)[C@H]3[C@@H]2C(=O)N2CCCCCCC2)cc1 show?
Result: 5.12

* * *

Below: a set of entries, each annotated with reported composite z-score.
Test: binders of probe aFGF2 on microarray, primary screen, stem cell growth factor project, biochemical, small-molecule microarray, fluorescence 635/667 (AID 1067);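 note: measures binding of biotinylated aFGF2 protein to printed compounds on slides; z-score merges feature fluorescence and signal-to-noise across triplicate slides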
Conditions: higher = more signal
Lab note: record the figure alone, no unit after it.

C=CC[C@@H](OC(=O)Nc1ccc(OC)cc1)c1ccc(O)c2ccccc12	-0.0364
CN1C(=O)C2C=CC(C(O)c3ccccn3)N(Nc3ccccc3)C2C1=O (stereo not drawn)	-0.0985
CCOC(=O)C1=CCC(c2ccc(C#N)cc2)N(S(=O)(=O)c2ccc(C)cc2)C1 (stereo not drawn)	0.165

Problem: Could you tell me which composite z-score is on file for C=CC[C@@]1(C(=O)NCC(O)CO)N=C(c2ccc(OCCCO)cc2)O[C@@H]1c1ccccc1N=[N+]=[N-] (stereo partly drawn) ?
Result: 0.0485

Problem: Look up composite z-score: O=C(CS)NCCCCCCNC(=O)[C@@H]1C[C@@H]2C(=O)N3CCC[C@H]3C(=O)N2[C@@H]1c1ccc(O)cc1
Result: -0.111

Problem: # get_value(readout='composite z-score', item= CC(C)=CCCC(C)=CC(O)C1C=CC2C(=O)N(c3ccccc3)C(=O)C2N1Nc1ccccc1 (stereo not drawn) )
Result: 0.155

Problem: // lookup composite z-score for CC(C)c1ccc(NN2C(C(O)c3cccc(O)c3)C=CC3C(=O)N(c4ccccc4)C(=O)C32)cc1 (stereo not drawn)
Result: 0.0864

Problem: Quick one: composite z-score for C=CCC(OC(C)=O)[C@@H]1[C@@H](N(Cc2cccc3ccccc23)C(=O)c2ccc(C)cc2)c2cc(OCCCO)ccc2N1C(=O)Cc1ccc(OC)cc1 (stereo partly drawn) ?
Result: -0.117

* * *

System: Inhibin beta A chain (activin A)
Test: INHBA (activin A) binders on microarrays, primary screen, biochemical, small-molecule microarray, 635 nm fluorescence scan (AID 1107);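 note: mouse activin A protein probed at 4.33 µg/mL on printed slides; score merges bound-protein fluorescence near 667 nm with spot signal-to-noise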
Conditions: small-molecule microarray binding, higher = more signal
measurement-type: composite z-score
Would you mind answering with just the numeric figure?

Cc1ccc(S[C@]2(C(=O)NCc3ccccc3)CC(=O)N(Cc3ccccc3)[C@@H]2c2ccc(CO)cc2)cc1	-0.317

Problem: # query: composite z-score of entry O=C1OCC=C[C@H]2OC34C=CCN(c5ccc(Cl)cc5)C(=O)[C@H]3N(CCCCCCO)C(=O)[C@@H]4[C@@H]12 (some centres not stated)
Result: -0.087

Problem: // query composite z-score value for entry COCCOC(=O)N1C(=O)[C@@]2(c3cc(C#CCC(C(=O)OC)C(=O)OC)ccc31)[C@H](c1ccccc1OCCO)N1[C@H](c3ccccc3)[C@H](c3ccccc3)OC(=O)[C@H]1[C@@H]2C(N)=O
Result: 0.0274

Problem: Form field: reported composite z-score of CC(C)C[C@@H]1NC(=O)[C@H]2C[C@@H](C(=O)NCCCCCCNC(=O)CS)[C@@H](c3cccc(OCCO)c3)N2C1=O
Result: 0.525

Problem: Would you mind telling me what composite z-score value was observed for CC(C)CNC(=O)[C@@]1(c2ccc([N+](=O)[O-])cc2)CC(=O)N(CC23CC4CC(CC(C4)C2)C3)[C@@H]1c1ccc(CO)cc1I ?
Result: 0.383

Problem: Bench note: what composite z-score did CC(C)CNC(=O)[C@@H]1c2ccccc2C(=O)N(Cc2cc(C(F)(F)F)cc(C(F)(F)F)c2)[C@H]1c1ccc(CO)cc1 show?
Result: -0.575

Problem: Fill in: composite z-score of CC(=CC1CCCCC1)[C@@H](NC(=O)c1ccc(C(F)(F)F)cc1)c1ccc(-c2ccccc2)cc1 is ___
Result: 1.03

* * *

Each item that follows carries a reported composite z-score.
Target: Torsin-1A-interacting protein 1 (Homo sapiens) (UniProt Q5JTV8)
Sequence (Q5JTV8 whole entry, looked up): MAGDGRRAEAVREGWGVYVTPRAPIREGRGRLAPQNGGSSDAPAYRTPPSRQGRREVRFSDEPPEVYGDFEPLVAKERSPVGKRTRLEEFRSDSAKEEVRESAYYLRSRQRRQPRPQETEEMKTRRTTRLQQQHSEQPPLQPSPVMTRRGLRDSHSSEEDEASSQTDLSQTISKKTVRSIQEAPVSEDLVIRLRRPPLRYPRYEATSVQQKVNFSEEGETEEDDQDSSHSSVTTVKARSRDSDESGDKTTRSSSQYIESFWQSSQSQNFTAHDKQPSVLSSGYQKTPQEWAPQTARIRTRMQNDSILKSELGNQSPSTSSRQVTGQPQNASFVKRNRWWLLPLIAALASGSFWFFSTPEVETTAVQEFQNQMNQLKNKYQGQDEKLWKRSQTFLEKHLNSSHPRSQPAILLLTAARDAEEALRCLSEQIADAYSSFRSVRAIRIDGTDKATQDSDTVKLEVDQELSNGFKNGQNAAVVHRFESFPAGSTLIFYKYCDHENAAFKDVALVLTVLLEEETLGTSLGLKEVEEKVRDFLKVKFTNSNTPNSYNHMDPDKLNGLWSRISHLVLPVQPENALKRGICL
Test: LAP1 binders from COS7 cell lysate, primary screen, small-molecule microarray, 635/667 nm fluorescence (AID 1116)
Details: COS7-hLAP1 lysate binding, 635 nm fluorescence, higher = more signal
Reply with just the number.

Examples with their reported composite z-score follow.
O=C1O[C@@H](c2ccccc2)[C@@H](c2ccccc2)N2[C@@H](c3ccc(OCCO)cc3)[C@]3(C(=O)Nc4ccc(C#CC5=CCCCC5)cc43)[C@@H](C(=O)O)[C@H]12	1.57
CC(C)(C)OC(=O)CC[C@@]1(C(=O)NCCN2CCOCC2)N=C(c2ccc(OCCCO)cc2)O[C@@H]1c1ccccc1	0.414
CC(=O)NCCCC[C@@H]1NC(=O)[C@H]2C[C@@H](C(=O)NCCCCCC[N+](C)(C)C)[C@@H](c3cccc(OCCO)c3)N2C1=O	0.595
O=C(OCCF)C1=CCC(c2cccc(Cl)c2)O1 (configuration not stated)	1.53
O=C1OCCC=C[C@H]2OC34C=CCN(Cc5ccccc5)C(=O)[C@H]3N(CCCCCCO)C(=O)[C@@H]4C12 (some centres not stated)	0.366
O=C1N(CCS(=O)(=O)c2ccccc2)c2ccccc2C[C@@]12COC(c1ccc(OCCCO)cc1)=N2	0.99

Problem: Please report the recorded composite z-score for C=CCC(OC(C)=O)[C@@H]1[C@@H](N(Cc2cc3ccccc3o2)C(=O)c2ccc(C)cc2)c2cc(OCCCO)ccc2N1C(=O)c1ccc2ccccc2c1 (some centres not stated) .
Result: 0.189
